# Test system: HEK-293T
# method_notes: Multiplex assay against HEK293T
# Type: toxicity, cell-based
# measurement_setup: human, 48 h, 10 µM, compound concentration 10 uM, number of replicates 2
property_label: Population Mitochondria Different-Phenotype (%)
Answers are plain numbers, in %.

Answered examples (3):
- molecular_string: "C[C@H](N)Cn1ccc2cc(F)c(Cl)cc21.O=C(O)/C=C/C(=O)O"
  reading: 1
- molecular_string: "Cc1ccc(C(=O)Nc2cc(N3CCN(C)CC3)cc(C(F)(F)F)c2)cc1-n1cc(-c2cnn(C)c2C)nn1.Cl"
  reading: 8
- molecular_string: "N=C(N)NCCC[C@H](NC(=O)COCC(c1ccccc1)c1ccccc1)C(=O)O.O=C(O)C(F)(F)F"
  reading: 0

Consider the record given below.
The compound listed as `CC1(C)C(=O)N([C@H]2CCc3c(O)cccc32)c2nc(Nc3cccc(CN4CCCC4)c3)ncc21` shows Population Mitochondria Different-Phenotype (%) equal to 94

---

# Tested on: HEK-293T
# method_notes: Multiplex assay against HEK293T
# Type: toxicity, cell-based
# measurement_setup: human, 12 h, 1 µM, compound concentration 1 uM, number of replicates 2
property_label: Population Mitochondria Different-Phenotype (%)
Answers are plain numbers, in %.

- molecular_string: "Cc1c(C(=O)Nc2ccc(N3C[C@@H](C)O[C@@H](C)C3)nc2)cccc1-c1ccc(OC(F)(F)F)cc1"
  unit_descriptor: "%"
  reading: 12
- molecular_string: "Cc1cccc(S(=O)(=O)N(C)[C@H](C)CCN2CCC(C)CC2)c1.Cl"
  unit_descriptor: "%"
  reading: 16
- molecular_string: "COc1nc2ccc([C@@](O)(c3ccc(Cl)cc3)c3cncn3C)cc2c(Cl)c1Cc1ccc(-n2cccn2)cc1"
  unit_descriptor: "%"
  reading: 26

From here, focus on the item given below.
The compound `C=CC(=O)Nc1ccc2[nH]c(=O)n(C3CCN(Cc4ccc(-c5ccc6c(c5)NC(=O)CO6)cc4)CC3)c2c1` on HEK-293T: Population Mitochondria Different-Phenotype (%) was 17

---

# System: Fibroblast
# method_notes: Multiplex assay against human fibroblast
# Type: toxicity, cell-based
# measurement_setup: 48 h, 10 µM, compound concentration 10 uM, number of replicates 2
Please go through the items and note down their Population Mitochondria Different-Phenotype (%).

- compound: "Cc1ccc(C(=O)Nc2cc(N3CCN(C)CC3)cc(C(F)(F)F)c2)cc1-n1cc(-c2cnn(C)c2C)nn1.Cl"
  reading: "10%"
- compound: "CN1CCCN(C(=O)c2cccc(-c3ccc(/C=C4/C(=O)Nc5ccc(Cl)cc54)o3)c2)CC1"
  reading: "0%"
- compound: "CN(C)[C@H]1CC[C@H](Nc2ncc3ncnc(Nc4ccc(F)c(Cl)c4)c3n2)CC1"
  reading: "0%"
- compound: "O=C(NCc1ccc(F)cc1)N1CCN2C(=O)OC(c3ccccc3)(c3ccccc3)C2C1 (stereo not given)"
  reading: "2%"

Proceed to the following item.
For record CCCN(CCc1cccs1)[C@H]1CCc2c(O)cccc2C1 [ROTIGOTINE] the listed Population Mitochondria Different-Phenotype (%) is 0%

---

# Tested on: HEK-293T
# method_notes: Multiplex assay against HEK293T
# Assay type: toxicity, cell-based
# measurement_setup: human, 48 h, 10 µM, compound concentration 10 uM, number of replicates 2
property_label: Population Hoechst High Intensity Objects (%)
Numbers only, in %.

Look up Population Hoechst High Intensity Objects (%) for the entries below, preserving their order.
1. CCCCOc1c(C(=O)c2c(F)cc(C)cc2F)c[nH]c2nncc1-2
2. COc1cc(Br)c(S(=O)(=O)Nc2ccc(C(F)(F)F)c(O[C@@H]3CCN(C)C3)c2)cc1OC
3. Cc1onc(-c2ccccc2Cl)c1C(=O)N(C)c1ccc(Cl)cc1

Resp:
[12, 9, 8]

State recorded Population Hoechst High Intensity Objects (%) for all listed compounds.
1. CN1CCN(c2ccc(-n3cc(-c4ccncc4OCC4CCNCC4)cn3)cc2)CC1
2. O=C(NCc1ccc(F)cc1)N1CCN2C(=O)OC(c3ccccc3)(c3ccccc3)C2C1 (stereo unspecified)
3. COc1cccc(Cn2cc(C(=O)Nc3ccc(C)c(S(=O)(=O)N4CCOCC4)c3)c(-c3ccc(C)cc3)n2)c1
4. CCn1c(-c2nonc2N)nc2cncc(C(=O)N3CC[C@H](N)C3)c21.Cl
5. C[C@@H](OC[C@@]1(c2ccccc2)CC[C@]2(CCC(=O)N2)CN1)c1cc(C(F)(F)F)cc(C(F)(F)F)c1 [ROLAPITANT]

Resp:
9
6
9
11
9

Please state Population Hoechst High Intensity Objects (%) for every compound in the list that follows.
1. C=CC(=O)Nc1ccc2[nH]c(=O)n(C3CCN(Cc4ccc(-c5ccc6c(c5)NC(=O)CO6)cc4)CC3)c2c1 [RL2578]
2. Br.Cc1cccc(C2CN(C)CCc3c2cc(O)c(O)c3Cl)c1 (stereo unspecified)

Resp:
1: 13; 2: 11

Measured Population Hoechst High Intensity Objects (%) of CC(C)N(CCCCOCC(=O)NS(C)(=O)=O)c1cnc(-c2ccccc2)c(-c2ccccc2)n1 [SELEXIPAG] : 9
